target: ZFPm4 six-finger zinc finger protein (Sp1C framework) (artificial); assay: EMSA; Zn Buffer A, 10% glycerol, 0.8% BSA, salmon sperm DNA, room temp; conditions: tags: MBP fusion (pMAL-C2), E. coli; label: 5'-biotin (ELISA); 32P (gel shift); hairpin
Sequence (chain, as listed by the source): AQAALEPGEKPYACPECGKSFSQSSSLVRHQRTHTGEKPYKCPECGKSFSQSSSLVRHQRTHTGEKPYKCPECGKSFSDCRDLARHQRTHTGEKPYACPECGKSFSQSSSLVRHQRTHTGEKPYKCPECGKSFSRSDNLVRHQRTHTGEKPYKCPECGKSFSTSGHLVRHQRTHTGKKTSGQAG
measure name: Kd
Be sure to follow the number with its unit.

QUERY: I am curious: what Kd value has been reported for m34 hairpin oligo (dsDNA) DNA: GGAGCCAACTACTACGGCTCCCTCACCGGGTTTTCCCGGTGAGGGAGCCGTAGTAGTTGGCTCC ?
RESULT: 0.25 nM
